Data provenance is patent US20260265256A1.

Each entry below carries its recorded IC50.
- Experimental Target: recombinant poly(ADP-ribose) polymerase 2 (PARP2) (Homo sapiens, UniProt Q9UGN5)
- Sequence (Q9UGN5 whole entry): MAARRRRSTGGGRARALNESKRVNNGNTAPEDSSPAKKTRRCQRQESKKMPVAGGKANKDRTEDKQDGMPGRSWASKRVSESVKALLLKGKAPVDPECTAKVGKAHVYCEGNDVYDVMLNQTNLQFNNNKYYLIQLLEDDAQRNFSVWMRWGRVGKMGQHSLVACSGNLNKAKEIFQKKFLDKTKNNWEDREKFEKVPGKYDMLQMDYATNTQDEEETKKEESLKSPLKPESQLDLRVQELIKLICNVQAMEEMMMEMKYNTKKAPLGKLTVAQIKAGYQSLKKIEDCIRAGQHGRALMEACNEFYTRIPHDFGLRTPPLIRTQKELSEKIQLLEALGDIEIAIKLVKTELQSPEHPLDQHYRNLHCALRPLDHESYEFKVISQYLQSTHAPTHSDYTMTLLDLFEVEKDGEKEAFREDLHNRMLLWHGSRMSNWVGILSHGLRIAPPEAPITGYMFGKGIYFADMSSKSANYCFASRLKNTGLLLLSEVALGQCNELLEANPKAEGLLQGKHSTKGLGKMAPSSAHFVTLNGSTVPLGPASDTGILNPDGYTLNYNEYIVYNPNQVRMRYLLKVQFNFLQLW
- Experimental Protocol: PARP2 chemiluminescent assay
- Assay type: biochemical
- Measurement Conditions: PARP2 enzyme activity, chemiluminescence, 40 ng enzyme/well

# Compound, Reading Qualifier, IC50 [nM]
data = [
    ("CCNC(=O)c1ccc(-n2cc3c(n2)CN(Cc2ccc4c([nH]c(=O)c5c(C)cnn54)c2F)C3)cn1 [Example 6]", ">", 10000),
    ("CNC(=O)c1ccc(-n2ncc3c2CN(Cc2ccc4c([nH]c(=O)c5c(C)cnn54)c2F)C3)cn1 [Example 1-2]", ">", 1000),
    ("CCNC(=O)c1ccc(-n2cc3c(n2)CN(Cc2ccc4c([nH]c(=O)c5c(F)cnn54)c2F)C3)c(F)n1 [Example 19]", ">", 10000),
    ("CNC(=O)c1ccc(-n2cc3c(n2)CN(Cc2ccc4c([nH]c(=O)c5cc(F)nn54)c2F)C3)c(F)n1 [Example 56]", "=", 2760),
    ("CNC(=O)c1ccc(-n2cc3c(n2)CN(Cc2ccc4c([nH]c(=O)c5occc54)c2F)C3)cn1 [Example 28]", "=", 119),
    ("O=C(NC1CC1)c1ccc(-n2cc3c(n2)CN(Cc2ccc4c([nH]c(=O)c5c(F)cnn54)c2F)C3)c(F)n1 [Example 21]", ">", 10000),
    ("CCNC(=O)c1ccc(-n2cc3c(n2)CN(Cc2ccc4c([nH]c(=O)n5cc(C)nc45)c2F)C3)cn1 [Example 50]", "=", 180),
    ("CNC(=O)c1ccc(-n2cc3c(n2)CN(Cc2ccc4c([nH]c(=O)c5c(C(F)(F)F)cnn54)c2F)C3)cn1 [Example 25]", "=", 21),
    ("CNC(=O)c1ccc(-c2nc3c(o2)CN(Cc2ccc4c([nH]c(=O)c5c(F)cnn54)c2F)C3)cn1 [Example 41]", "=", 61.1),
    ("CCNC(=O)c1ccc(-n2cc3c(n2)CN(Cc2ccc4c([nH]c(=O)c5cc(F)nn54)c2F)C3)c(F)n1 [Example 57]", ">", 10000),
    ("CNC(=O)c1ccc(-n2cc3c(n2)CCN(Cc2ccc4c([nH]c(=O)c5c(C)cnn54)c2F)C3)cn1 [Example 10-1]", ">", 10000),
    ("CNC(=O)c1ccc(-n2cc3c(n2)CN(Cc2ccc4c([nH]c(=O)n5cc(C)nc45)c2F)C3)c(F)n1 [Example 51]", ">", 10000),
    ("CNC(=O)c1ccc(-n2cc3c(n2)CN(Cc2ccc4c([nH]c(=O)c5c(F)cnn54)c2F)C3)c(Cl)n1 [Example 16]", "=", 1190),
    ("CNC(=O)c1ccc(-c2nc3c([nH]2)CN(Cc2ccc4c([nH]c(=O)c5c(C)cnn54)c2F)C3)cn1 [Example 34]", "=", 40),
]

* * *

Each entry below carries its recorded IC50.
- Experimental Target: PDE3A (Homo sapiens)
- Construct: purchased Sino Biological 11908-H20B1
- Sequence (Q14432 669-1141 limits assumed): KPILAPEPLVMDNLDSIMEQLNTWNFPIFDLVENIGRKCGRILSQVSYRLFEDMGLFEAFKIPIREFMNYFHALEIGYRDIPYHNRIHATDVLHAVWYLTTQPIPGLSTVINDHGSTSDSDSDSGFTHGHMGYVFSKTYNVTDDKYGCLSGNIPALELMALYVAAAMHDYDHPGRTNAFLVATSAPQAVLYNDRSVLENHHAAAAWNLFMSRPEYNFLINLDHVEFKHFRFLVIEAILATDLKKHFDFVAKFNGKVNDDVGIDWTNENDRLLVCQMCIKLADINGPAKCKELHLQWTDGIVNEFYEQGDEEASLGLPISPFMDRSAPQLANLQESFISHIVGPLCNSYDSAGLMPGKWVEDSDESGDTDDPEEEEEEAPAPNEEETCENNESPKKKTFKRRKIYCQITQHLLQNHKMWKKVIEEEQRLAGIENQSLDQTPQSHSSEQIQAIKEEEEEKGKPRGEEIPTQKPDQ
- Experimental Protocol: PDE3A fluorescence polarization (FP) assay
- Assay type: biochemical
- Measurement Conditions: 2 nM PDE3A, 0.2 μM FAM-cAMP, read-out: IC50 (μM), PDE3A enzyme activity

# Compound, IC50
records = [
    ("CNC(=O)c1ccc(-n2cc3c(n2)CN(Cc2ccc4c([nH]c(=O)c5c(F)cnn54)c2F)C3)c(Cl)n1 [Example 16]", "> 30 µM"),
    ("CCNC(=O)c1ccc(-n2cc3c(n2)CN(Cc2ccc4c([nH]c(=O)c5occc54)c2F)C3)c(F)n1 [Example 55]", "> 30 µM"),
    ("CCNC(=O)c1ccc(-n2cc3c(n2)CN(Cc2ccc4c([nH]c(=O)n5cc(C)nc45)c2F)C3)c(F)n1 [Example 52]", "> 30 µM"),
]
